assay: Solubility experiment in different media; assay type: physicochemical; conditions: aqueous buffer, thermodynamic from solid, USP Buffer pH 8, room temperature
READOUT LABEL: solubility at 24 h (µg/mL)
// note: answer is a bare numeric in µg/mL

Per the records, this molecule ( CS(=O)(=O)O.N#Cc1cc2n(CC(=O)Nc3ccc(F)cn3)c(=O)c3ccc(C(F)(F)F)nc3n2n1 [Methanesulfonate (crystal form A)] ) has solubility at 24 h equal to 1.8

----------
test: Hygroscopicity experiment (DVS); type: physicochemical; conditions: Cycle 2, target relative humidity 70.0%, 25° C.
READOUT LABEL: % percentage of mass change, Sorption (%)
// note: answer is a bare numeric in %

Per the records, this compound ( CS(=O)(=O)O.N#Cc1cc2n(CC(=O)Nc3ccc(F)cn3)c(=O)c3ccc(C(F)(F)F)nc3n2n1 [Methanesulfonate (crystal form A)] ) has % percentage of mass change, Sorption equal to 0.331

Per the records, this compound ( Cl.N#Cc1cc2n(CC(=O)Nc3ccc(F)cn3)c(=O)c3ccc(C(F)(F)F)nc3n2n1 [Hydrochloride (crystal form A)] ) has % percentage of mass change, Sorption equal to 7.610

Per the records, this compound ( N#Cc1cc2n(CC(=O)Nc3ccc(F)cn3)c(=O)c3ccc(C(F)(F)F)nc3n2n1.O=S(=O)(O)O [Sulfate (crystal form B)] ) has % percentage of mass change, Sorption equal to 0.545

Per the records, this compound ( CCS(=O)(=O)O.N#Cc1cc2n(CC(=O)Nc3ccc(F)cn3)c(=O)c3ccc(C(F)(F)F)nc3n2n1 [Ethanesulfonate (crystal form A)] ) has % percentage of mass change, Sorption equal to 0.388
